# MEASURED_TARGET: LdNMT (Leishmania donovani, UniProt D0AB09)
# Sequence (D0AB09 entry or part of it): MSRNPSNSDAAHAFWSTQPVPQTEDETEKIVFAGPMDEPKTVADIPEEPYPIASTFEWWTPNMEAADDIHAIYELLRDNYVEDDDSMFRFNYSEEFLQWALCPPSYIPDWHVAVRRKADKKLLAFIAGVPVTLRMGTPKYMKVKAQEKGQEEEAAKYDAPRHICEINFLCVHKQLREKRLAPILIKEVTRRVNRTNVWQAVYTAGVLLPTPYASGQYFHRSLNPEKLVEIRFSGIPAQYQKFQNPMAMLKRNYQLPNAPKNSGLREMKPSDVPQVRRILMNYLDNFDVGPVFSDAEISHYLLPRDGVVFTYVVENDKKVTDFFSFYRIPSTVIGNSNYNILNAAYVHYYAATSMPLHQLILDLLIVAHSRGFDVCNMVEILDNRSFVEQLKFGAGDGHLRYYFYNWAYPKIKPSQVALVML
# TEST_METHOD_NOTES: biochemical
# MEASUREMENT_CONDITIONS: 95% confidence interval in brackets; read-out: CPM Assay, IC50 (CI95) LdNMT
MEASURED_METRIC: pIC50
# pIC50: negative log10 of molar concentration; output just the value

Request: Could you tell me which pIC50 is on file for CN(C)CCCN(C)c1nc(N(C)CCC#N)c2sccc2n1 [Compound 2] ?
Result: 6.23

* * *

# MEASURED_TARGET: LdNMT (Leishmania donovani)
# TEST_METHOD_NOTES: biochemical
# MEASUREMENT_CONDITIONS: CPM Assay, IC50 (CI95) LdNMT, 95% confidence interval in brackets
MEASURED_METRIC: pIC50
# pIC50: negative log10 of molar concentration; output just the value

Request: Checklist item: pIC50 tested on LdNMT (Leishmania donovani), entry `CCN(C)c1nc(N(C)C2CCNCC2)nc2ccc(S(=O)(=O)Nc3c(C)nn(C)c3C)cc12` , value?
Result: 6.48

* * *

Listed compounds paired with reported Alamar Blue Assay nAUC
# System: bone-marrow-derived macrophages (BMDM)
# TEST_METHOD_NOTES: Alamar blue-based assay, macrophage toxicity
# Assay type: cell-based, BALB/c mice
# MEASUREMENT_CONDITIONS: toxicity against bone-marrow-derived macrophages; normalized area under the curve
Would you mind answering with just the numeric figure?

Recorded Alamar Blue Assay nAUC, per entry:
# COMPOUND, MEASURED_METRIC, TEST_VALUE
records = [
    ("CN1CCC(N(C)c2nc(N(C)CCC#N)c3ccccc3n2)C1 (stereo not shown)", "Alamar Blue Assay nAUC", 1.03),
    ("CN1CCC(N(C)c2nc(N(C)CCC#N)c3ccccc3n2)CC1", "Alamar Blue Assay nAUC", 1.04),
    ("CN1CCC(N(C)c2nc(N3CCC[C@H]3CC#N)c3sccc3n2)CC1", "Alamar Blue Assay nAUC", 1.08),
    ("CCN1CCC(N(C)c2nc(N(C)CCC#N)c3sccc3n2)CC1", "Alamar Blue Assay nAUC", 1.05),
    ("CCN(C)c1nc(N(C)C2CCN(C)CC2)nc2ccsc12", "Alamar Blue Assay nAUC", 1.05),
]

Request: Could you tell me which Alamar Blue Assay nAUC is on file for `CN(CCC#N)c1nc(N(C)C2CCNCC2)nc2ccsc12` ?
Result: 1.05

Request: Another compound: `CN1CCC(N(C)c2nc(N(C)CCC#N)c3sccc3n2)CC1`
Result: 1.07

Request: Another compound: `CN(C)CCCN(C)c1nc(N2CCC[C@H]2CO)c2sccc2n1`
Result: 1.14

Request: Another compound: `COC[C@@H]1CCCN1c1nc(N(C)C2CCN(C)CC2)nc2ccsc12`
Result: 1.06

Request: Another compound: `CN(C)CCCN(C)c1nc(N(C)CCC#N)c2ccccc2n1`
Result: 1.17

* * *

# Test system: bone-marrow-derived macrophages (BMDM)
# TEST_METHOD_NOTES: Alamar blue-based assay, macrophage toxicity
# Type: cell-based, BALB/c mice
# MEASUREMENT_CONDITIONS: toxicity against bone marrow derived macrophages
MEASURED_METRIC: BMDM TC50

Request: Could you tell me which BMDM TC50 is on file for `CN(C)CCCN(C)c1nc(N2CCC[C@H]2CO)c2sccc2n1` ?
Result: >50 µM

Request: Another compound: CN1CCC(N(C)c2nc(N(C)CCC#N)c3sc(C(C)(C)C)cc3n2)C1 (centres unmarked)
Result: >40 µM

Request: Another compound: `CN(CCC#N)c1nc(N(C)C2CCNCC2)nc2ccsc12`
Result: >50 µM

Request: Another compound: `CN(C)CCCN(C)c1nc(N(C)CCCO)c2sccc2n1`
Result: >50 µM

Request: Another compound: `CN(CCC#N)c1nc(N(C)C2CCNCC2)nc2ccccc12`
Result: >50 µM
